- studySystem: Dual specificity protein phosphatase 3 (Homo sapiens) (UniProt P51452)
- Sequence (P51452 whole entry, looked up): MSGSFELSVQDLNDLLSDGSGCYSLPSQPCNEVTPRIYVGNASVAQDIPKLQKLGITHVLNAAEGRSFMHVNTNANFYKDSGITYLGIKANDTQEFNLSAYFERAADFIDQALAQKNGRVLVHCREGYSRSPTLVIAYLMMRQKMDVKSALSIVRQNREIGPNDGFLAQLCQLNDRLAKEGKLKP
- protocolNotes: VHR1 phosphatase inhibitors, biochemical (AID 1878)
- conditionLabel: recombinant VHR phosphatase, fluorogenic substrate; at 13.3 µM
Among all 1,000 compounds or so, about 200 (20%) were called active. Rule as the data show it: active = inhibition above about 55%; inactive = the rest. Not all results are given here. Potency and affinity values are given separately.
I would appreciate it if you answered using one of these outcomes: 1 (active), 0 (inactive)

Example cases with answers are listed next.
{"columns": ["compound", "groupLabel"],
 "data": [
  ["O=C(Nc1cccc(O)c1)C1CC(c2cccc(Br)c2)=NO1 (stereo unspecified)", 0],
  ["CC1(C)CC(NC(=O)C(c2ccccc2)c2ccccc2)CC(C)(C)N1", 0],
  ["CC(=O)N1CCN(c2ccc(NCc3cccc4ccccc34)cc2)CC1", 0],
  ["O=C(Nc1cccc2cccnc12)c1cccc(Cl)c1", 0],
  ["CC(NC(=O)COc1ccc(/C=N/NC(=O)CO)cc1)c1ccccc1 (stereo unspecified)", 0]
]}

q: Test call, this compound: `CCn1c(=O)n(CC)c2cc(N3CCCC3)c(NC(=O)c3cccc(OC)c3)cc21`
a: 0

q: Check Cc1nn(CC(=O)NCCCN2CC(C)CC(C)C2)c(=O)c2cccn12 (stereo unspecified) too.
a: 0

q: Check CC1CC(C)CN(CCCNC(=O)c2ccc(CNS(=O)(=O)c3ccc(F)cc3)cc2)C1 (stereo unspecified) too.
a: 0

q: Check `CC1(C)CC(NC(=S)Nc2ccc(S(N)(=O)=O)cc2)CC(C)(C)N1` too.
a: 1

q: Check CCC1CCCCN1CCCNC(=O)C1CC(=O)N(CCc2ccccc2)C1 (stereo unspecified) too.
a: 0

q: Check `CC1(C)CC(NS(=O)(=O)c2ccc(C(C)(C)C)cc2)CC(C)(C)N1` too.
a: 0

* * *

- studySystem: Dual specificity protein phosphatase 3 (Homo sapiens)
- protocolNotes: VHR1 phosphatase inhibitors, biochemical (AID 1878)
- conditionLabel: recombinant VHR phosphatase, fluorogenic substrate; at 13.3 µM
Screen size: about 1,000 compounds; about 200 (20%) were called active. No stated cut-off is given here; in the data, active means inhibition above about 55%; inactive means the rest. The list is a sample of the results. Entries with a potency or affinity are not part of this list.
I would appreciate it if you answered using one of these outcomes: y = active, n = inactive

{"columns": ["compound", "groupLabel"],
 "data": [
  ["CCC1CCCCN1CCCNC(=O)CN1C(=O)COc2ccc(S(=O)(=O)N3CCOCC3)cc21 (configuration not stated)", "n"],
  ["CCN1CCN(CCCNC(=O)CN2C(=O)c3cccnc3Oc3ccc(Cl)cc32)CC1", "n"],
  ["COc1cc2c(cc1OC)-c1cc(Nc3cccc(F)c3)nc(=O)n1CC2", "n"]
]}

q: Test call, this compound: `COc1ccc(NC(=O)NCCN2CCCCC2)cc1`
a: n

q: Check O=C(NCCCN1CCCCC1)c1ccc(CS(=O)c2ccc(Cl)cc2)o1 (configuration not stated) too.
a: n

q: Check O=C(c1ccc(CS(=O)c2ccccc2Cl)o1)N1CCN(c2ccccc2)CC1 (configuration not stated) too.
a: n

q: Check `Cc1ccc(NC(=O)NC(=O)CN2CCN(c3ccc(O)cc3)CC2)c(C)c1` too.
a: n

q: Check `COC(=O)c1sccc1NC(=O)Nc1ccc(C)cc1C` too.
a: n

q: Check `CCCCNC(=O)c1cn(C)c2ccc(S(=O)(=O)N3CCCC3)cc2c1=O` too.
a: n

q: Check O=C(N=C1SC2CS(=O)(=O)CC2N1c1ccc(F)cc1F)C1CC1 (configuration not stated) too.
a: n

q: Check `Cc1cccc(NC(=O)CN2C(=O)S/C(=C\c3cccn3-c3cccc(C(=O)O)c3)C2=O)c1` too.
a: y

q: Check `O=C(COc1ccccc1Cl)N1CCCCCCC1` too.
a: n

q: Check CCOCCCNC(=O)C1CC(=O)N(CCc2ccccc2)C1 (configuration not stated) too.
a: n

q: Check `Cc1ccc2c(c1)c(CC(=O)Nc1ccc(C)c(F)c1)c(C(=O)O)n2C` too.
a: n

q: Check `COc1ccc(CCNC(=O)CCNC(=O)N2CC(=O)Nc3ccccc32)cc1` too.
a: n

q: Check COc1ccccc1NC(=O)C1CCCN(S(=O)(=O)c2ccc3c(c2)CC(C)N3C(C)=O)C1 (configuration not stated) too.
a: n

q: Check `CCCCCCN1CC(=O)N2Cc3[nH]c4ccccc4c3C[C@H]2C1=O` too.
a: n

q: Check `COCCNC(=O)CN1N=C(c2ccc(C)cc2)CCC1=O` too.
a: n

q: Check `Cc1ccc(OCCCCN2CCCCC2)cc1` too.
a: n

q: Check CC(NC(=O)C(=O)N1CCCCC1)C(c1cccs1)N1CCN(C)CC1 (configuration not stated) too.
a: n

q: Check Cc1ccc(CN2C(=O)CC(Nc3ccc(N4CCOCC4)cc3)C2=O)cc1 (configuration not stated) too.
a: n

q: Check `O=C(/C=C/c1c(Cl)nc2ccccn12)N1CCN(c2ccc(F)cc2)CC1` too.
a: n

Data origin, for the record: PubChem BioAssay AID1878
